// provenance: ChEMBL document CHEMBL2062419

tested on: HEL; experiment: Cytotoxicity against HEL cells assessed as effect on cell growth incubated for 3 days by Coulter counter assay; type: cell-based; conditions: human, 72 h
Param label: returns yes when CC50 < 20 µM, returns no otherwise, including exact equality.

>>> group("CCCCCCCCCCCCCCCCOCCCOP(=O)(O)CCOCCn1cnc2c(=O)[nH]c(N)nc21")
"no"
>>> group("Nc1nc2c(ncn2COCCO)c(=O)[nH]1")
"no"
>>> group("CCCCCCCCCCCCCCCCOCCCOP(=O)(CO[C@H](CO)Cn1cnc2c(=O)[nH]c(N)nc21)OCCCOCCCCCCCCCCCCCCCC")
"no"
>>> group("Nc1nc2c(ncn2C[C@H]2COP(=O)(O)CO2)c(=O)[nH]1")
"yes"
>>> group("CCCCCCCCCCCCCCCCOCCCOP(=O)(O)CO[C@H](CO)Cn1cnc2c(=O)[nH]c(N)nc21")
"yes"
>>> group("CCCCCCCCCCCCCCCCOCCCOP(=O)(O)CO[C@H](CO)Cn1cnc2c(=O)[nH]cnc21")
"no"
>>> group("Nc1nc2c(ncn2C[C@@H](CO)OCP(=O)(O)O)c(=O)[nH]1")
"no"
>>> group("CCCCCCCCCCCCCCCCOCCCOP1(=O)CO[C@@H](Cn2cnc3c(=O)[nH]c(N)nc32)CO1 (mixture of isomers)")
"yes"

====

assay: Selectivity index, ratio of cytotoxic CC50 for HEL cells to EC50 for Feline herpesvirus; assay type: toxicity, cell-based; conditions: human, read-out: Ratio CC50/EC50
Endpoint name: selectivity ratio

>>> obs_value("Nc1nc2c(ncn2C[C@H]2COP(=O)(O)CO2)c(=O)[nH]1")
96
>>> obs_value("CCCCCCCCCCCCCCCCOCCCOP1(=O)CO[C@@H](Cn2cnc3c(=O)[nH]c(N)nc32)CO1 (mixture of isomers)")
398
>>> obs_value("Nc1nc2c(ncn2C[C@@H](CO)OCP(=O)(O)O)c(=O)[nH]1")
157

====

assay: Selectivity index, ratio of cytotoxic CC50 for HEL cells to EC50 for VZV 07/01
Endpoint name: Ratio CC50/EC50

>>> obs_value("CCCCCCCCCCCCCCCCOCCCOP(=O)(CO[C@H](CO)Cn1cnc2c(=O)[nH]c(N)nc21)OCCCOCCCCCCCCCCCCCCCC")
">81"
>>> obs_value("Nc1nc2c(ncn2C[C@H]2COP(=O)(O)CO2)c(=O)[nH]1")
74
>>> obs_value("CCCCCCCCCCCCCCCCOCCCOP(=O)(O)CCOCCn1cnc2c(=O)[nH]c(N)nc21")
87
>>> obs_value("CCCCCCCCCCCCCCCCOCCCOP(=O)(O)CO[C@H](CO)Cn1cnc2c(=O)[nH]c(N)nc21")
423
>>> obs_value("Nc1nc2c(ncn2C[C@@H](CO)OCP(=O)(O)O)c(=O)[nH]1")
186
>>> obs_value("CCCCCCCCCCCCCCCCOCCCOP1(=O)CO[C@@H](Cn2cnc3c(=O)[nH]c(N)nc32)CO1 (mixture of isomers)")
3800

====

assay: Selectivity index, ratio of cytotoxic CC50 for HEL cells to EC50 for Vaccinia virus Lederie; format: toxicity, cell-based; conditions: human, read-out: Ratio CC50/EC50
Endpoint name: selectivity ratio

>>> obs_value("CCCCCCCCCCCCCCCCOCCCOP1(=O)CO[C@@H](Cn2cnc3c(=O)[nH]c(N)nc32)CO1 (mixture of isomers)")
146
>>> obs_value("Nc1nc2c(ncn2C[C@H]2COP(=O)(O)CO2)c(=O)[nH]1")
17
>>> obs_value("Nc1nc2c(ncn2C[C@@H](CO)OCP(=O)(O)O)c(=O)[nH]1")
35
>>> obs_value("CCCCCCCCCCCCCCCCOCCCOP(=O)(O)CO[C@H](CO)Cn1cnc2c(=O)[nH]c(N)nc21")
65

====

tested on: Human betaherpesvirus 5; assay: Antiviral activity against HCMV Davis infected in HEL cells by viral CPE assay; assay type: functional, organism-based; conditions: Human betaherpesvirus 5, Davis
Endpoint name: EC50 (µM)

>>> obs_value("CCCCCCCCCCCCCCCCOCCCOP(=O)(O)CO[C@H](CO)Cn1cnc2c(=O)[nH]c(N)nc21")
0.0022
>>> obs_value("Nc1nc2c(ncn2C[C@@H](CO)OCP(=O)(O)O)c(=O)[nH]1")
1.5
>>> obs_value("CCCCCCCCCCCCCCCCOCCCOP(=O)(CO[C@H](CO)Cn1cnc2c(=O)[nH]c(N)nc21)OCCCOCCCCCCCCCCCCCCCC")
10.1
>>> obs_value("CCCCCCCCCCCCCCCCOCCCOP(=O)(O)CCOCCn1cnc2c(=O)[nH]c(N)nc21")
0.06
>>> obs_value("Nc1nc2c(ncn2C[C@H]2COP(=O)(O)CO2)c(=O)[nH]1")
1.6
>>> obs_value("CCCCCCCCCCCCCCCCOCCCOP(=O)(O)CO[C@H](CO)Cn1cnc2c(=O)[nH]cnc21")
15.2
>>> obs_value("CCCCCCCCCCCCCCCCOCCCOP1(=O)CO[C@@H](Cn2cnc3c(=O)[nH]c(N)nc32)CO1 (mixture of isomers)")
0.002

====

test system: HEL; test: Cytotoxicity against HEL cells assessed as effect on cell growth incubated for 3 days by Coulter counter assay; assay type: cell-based; settings: human, 72 h
Catalogue of CC50 values
Endpoint name: CC50

>>> obs_value("CCCCCCCCCCCCCCCCOCCCOP(=O)(CCOCCn1cnc2c(=O)[nH]c(N)nc21)OCCCOCCCCCCCCCCCCCCCC")
"> 115 µM"
>>> obs_value("CCCCCCCCCCCCCCCCOCCCOP(=O)(CO[C@H](CO)Cn1cnc2c(=O)[nH]cnc21)OCCCOCCCCCCCCCCCCCCCC")
"> 115 µM"
>>> obs_value("CCCCCCCCCCCCCCCCOCCCOP1(=O)CO[C@@H](Cn2cnc3c(=O)[nH]cnc32)CO1 (mixture of isomers)")
"> 176 µM"

====

tested on: Human alphaherpesvirus 1; experiment: Antiviral activity against HSV1 KOS infected in HEL cells by viral CPE assay; assay type: functional, organism-based; settings: Human alphaherpesvirus 1, KOS
Endpoint name: EC50 (nM)

>>> obs_value("CCCCCCCCCCCCCCCCOCCCOP(=O)(O)CCOCCn1cnc2c(=O)[nH]c(N)nc21")
1370
>>> obs_value("Nc1nc2c(ncn2C[C@H]2COP(=O)(O)CO2)c(=O)[nH]1")
660
>>> obs_value("CCCCCCCCCCCCCCCCOCCCOP(=O)(O)CO[C@H](CO)Cn1cnc2c(=O)[nH]c(N)nc21")
8
>>> obs_value("Nc1nc2c(ncn2C[C@@H](CO)OCP(=O)(O)O)c(=O)[nH]1")
780
>>> obs_value("Nc1nc2c(ncn2COCCO)c(=O)[nH]1")
530
>>> obs_value("CCCCCCCCCCCCCCCCOCCCOP(=O)(CO[C@H](CO)Cn1cnc2c(=O)[nH]c(N)nc21)OCCCOCCCCCCCCCCCCCCCC")
11900
>>> obs_value("O=c1[nH]c(=O)n([C@H]2C[C@H](O)[C@@H](CO)O2)cc1/C=C/Br")
38

====

Quick reference: EC50 of the listed items.
tested on: Human alphaherpesvirus 2; test: Antiviral activity against HSV2 G infected in HEL cells by viral CPE assay; type: functional, organism-based; conditions: Human alphaherpesvirus 2, strain G
Endpoint name: EC50

>>> obs_value("CCCCCCCCCCCCCCCCOCCCOP(=O)(O)CCOCCn1cnc2c(=O)[nH]cnc21")
"> 35 µM"
>>> obs_value("CCCCCCCCCCCCCCCCOCCCOP(=O)(CCOCCn1cnc2c(=O)[nH]cnc21)OCCCOCCCCCCCCCCCCCCCC")
"> 117 µM"
>>> obs_value("CCCCCCCCCCCCCCCCOCCCOP(=O)(O)CO[C@H](CO)Cn1cnc2c(=O)[nH]cnc21")
"> 6.8 µM"

====

Recorded EC50, one value per entry.
tested on: Human betaherpesvirus 5; test: Antiviral activity against HCMV Davis infected in HEL cells by viral CPE assay; type: functional, organism-based; conditions: Human betaherpesvirus 5, Davis
Endpoint name: EC50

>>> obs_value("CCCCCCCCCCCCCCCCOCCCOP(=O)(CO[C@H](CO)Cn1cnc2c(=O)[nH]cnc21)OCCCOCCCCCCCCCCCCCCCC")
"> 23 µM"
>>> obs_value("CCCCCCCCCCCCCCCCOCCCOP(=O)(O)CCOCCn1cnc2c(=O)[nH]cnc21")
"> 35 µM"
>>> obs_value("CCCCCCCCCCCCCCCCOCCCOP1(=O)CO[C@@H](Cn2cnc3c(=O)[nH]cnc32)CO1 (mixture of isomers)")
"> 7 µM"
>>> obs_value("CCCCCCCCCCCCCCCCOCCCOP(=O)(CCOCCn1cnc2c(=O)[nH]c(N)nc21)OCCCOCCCCCCCCCCCCCCCC")
"> 23 µM"
>>> obs_value("CCCCCCCCCCCCCCCCOCCCOP(=O)(CCOCCn1cnc2c(=O)[nH]cnc21)OCCCOCCCCCCCCCCCCCCCC")
"> 23.4 µM"
